# target.desc: human c-Met (Homo sapiens, UniProt P08581)
# Construct: Recombinant GST-tagged cytosolic domains of human c-Met; 6xHis; Sf9 or Sf21 insect cells
# Sequence (P08581 956-1390 limits assumed): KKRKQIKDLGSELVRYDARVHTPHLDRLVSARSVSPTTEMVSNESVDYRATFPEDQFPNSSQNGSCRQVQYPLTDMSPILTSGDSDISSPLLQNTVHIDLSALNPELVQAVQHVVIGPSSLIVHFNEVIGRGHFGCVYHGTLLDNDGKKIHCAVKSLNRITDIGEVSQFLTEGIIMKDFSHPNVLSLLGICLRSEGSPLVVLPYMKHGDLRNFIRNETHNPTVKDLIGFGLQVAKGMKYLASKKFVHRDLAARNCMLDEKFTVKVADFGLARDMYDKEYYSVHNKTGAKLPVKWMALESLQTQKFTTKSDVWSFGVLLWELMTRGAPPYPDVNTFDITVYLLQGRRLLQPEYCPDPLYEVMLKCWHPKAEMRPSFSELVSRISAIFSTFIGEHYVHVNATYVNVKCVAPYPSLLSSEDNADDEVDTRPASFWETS
# protocol: In vitro c-Met kinase assay (homogeneous time-resolved fluorescence tyrosine kinase assay)
# measurement.context: recombinant GST-tagged cytosolic domain of c-Met, 0.2 nM enzyme, 50 μM MgATP, HTRF readout
# Experimental: Recombinant GST-tagged cytosolic domains of human c-Met and other receptor tyrosine kinases including mouse c-Met, human Ron, KDR, IGFR, EGFR, FGFR, Mer, TrkA and Tie2 are used to determine whether the compounds of the instant invention modulate the enzymatic activities of these kinases. […] The kinase activities of c-Met and other kinases are measured using a modified version of the homogeneous time-resolved tyrosine kinase assay described by Park et al. (1999, Anal. Biochem. 269:94-104). […]
pIC50: −log10 of the molar value.
quantity: pIC50

Nc1ccc2c(c1)NC(=O)c1cc(-c3ccccc3)cnc1C=C2: > 4.30

// lookup pIC50 for "Nc1ccc2c(c1)C(=O)Nc1cc(-c3ccccc3)cnc1C=C2"
> 4.30
